koff values for the binders below.
TEST SYSTEM: humanized therapeutic monoclonal antibody IgG1 (hIgG1)
PROTOCOL: SPR (Biacore T200), mAb captured by anti-rabbit mAb on CM5, antigen 80-0 nM, 1:1 fit
Give just the numeric value; s⁻¹ need not be written.

BINDER	koff, s⁻¹
rabbit anti-human IgG monoclonal antibody clone 9E6 (antibody, V domains shown) VH: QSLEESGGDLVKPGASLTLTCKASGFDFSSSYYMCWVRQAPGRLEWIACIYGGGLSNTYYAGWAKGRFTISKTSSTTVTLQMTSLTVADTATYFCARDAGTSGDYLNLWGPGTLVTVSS VL: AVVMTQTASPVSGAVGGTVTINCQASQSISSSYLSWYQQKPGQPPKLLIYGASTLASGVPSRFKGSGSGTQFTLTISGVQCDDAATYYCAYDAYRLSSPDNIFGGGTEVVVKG	6.1e-05

Request: // koff lookup, key: rabbit anti-human IgG monoclonal antibody clone 2C5 (antibody, V domains shown) VH: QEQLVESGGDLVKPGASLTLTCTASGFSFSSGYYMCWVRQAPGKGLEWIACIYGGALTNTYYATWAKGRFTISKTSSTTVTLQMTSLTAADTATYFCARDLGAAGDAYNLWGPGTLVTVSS VL: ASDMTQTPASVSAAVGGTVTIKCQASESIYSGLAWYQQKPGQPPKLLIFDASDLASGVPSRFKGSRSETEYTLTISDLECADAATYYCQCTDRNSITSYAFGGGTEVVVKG
Response: 3.8e-05

Request: // koff lookup, key: rabbit anti-human IgG monoclonal antibody clone 11G5 (antibody, V domains shown) VH: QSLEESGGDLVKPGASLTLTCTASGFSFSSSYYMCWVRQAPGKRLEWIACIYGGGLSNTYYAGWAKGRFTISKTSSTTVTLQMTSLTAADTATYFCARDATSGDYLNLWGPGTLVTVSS VL: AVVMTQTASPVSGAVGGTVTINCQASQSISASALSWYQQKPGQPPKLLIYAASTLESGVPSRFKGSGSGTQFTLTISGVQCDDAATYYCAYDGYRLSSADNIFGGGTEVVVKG
Response: 2.52e-05

Request: // koff lookup, key: rabbit anti-human IgG monoclonal antibody clone 16F5 (antibody, V domains shown) VH: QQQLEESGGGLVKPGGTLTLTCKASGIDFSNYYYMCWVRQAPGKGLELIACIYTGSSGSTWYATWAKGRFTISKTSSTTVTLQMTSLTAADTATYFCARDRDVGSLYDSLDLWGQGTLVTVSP VL: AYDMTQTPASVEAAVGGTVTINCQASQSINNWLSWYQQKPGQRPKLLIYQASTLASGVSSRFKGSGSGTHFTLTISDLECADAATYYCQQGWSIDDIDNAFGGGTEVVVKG
Response: 2.21e-05
